Target chain: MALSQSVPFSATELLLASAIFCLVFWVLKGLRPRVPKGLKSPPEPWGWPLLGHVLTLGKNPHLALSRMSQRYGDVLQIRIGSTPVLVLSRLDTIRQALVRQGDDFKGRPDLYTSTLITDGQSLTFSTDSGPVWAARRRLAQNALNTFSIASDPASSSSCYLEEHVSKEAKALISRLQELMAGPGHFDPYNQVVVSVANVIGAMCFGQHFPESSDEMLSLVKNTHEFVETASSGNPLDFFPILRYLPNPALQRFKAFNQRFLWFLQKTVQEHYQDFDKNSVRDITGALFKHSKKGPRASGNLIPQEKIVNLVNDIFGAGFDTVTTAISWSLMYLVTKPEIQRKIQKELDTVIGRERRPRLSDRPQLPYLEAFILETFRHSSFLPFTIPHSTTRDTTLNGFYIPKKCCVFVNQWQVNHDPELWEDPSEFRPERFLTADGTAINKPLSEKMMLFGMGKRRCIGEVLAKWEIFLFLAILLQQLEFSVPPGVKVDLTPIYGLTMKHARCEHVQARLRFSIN
pIC50: −log10 of the molar value.
Parameter measured: pIC50

Task: Endpoint output: pIC50 of Cc1cc(C)cc(C(N=[N+]=[N-])c2nc(SC(C)C)[nH]c(=O)c2C)c1 (stereo unspecified) . Value?
Result: < 4.30
